# Tested on: tankyrase 1/2
# Experiment Notes: Cellular inhibition of tankyrase: increase of Axin2 level in DLD1 cells (Luminex)
# Assay type: cell-based
# Condition Summary: DLD1 colon carcinoma cells, 24 hours, read-out: EC50 tankyrase 1/2 (cell assay)
pEC50: −log10 of the molar value.
Entries annotated with measured pEC50

- Smiles Input: "Cc1ccc(-c2cc3c(C)cccc3c(=O)[nH]2)cc1"
  Assayed Target: "tankyrase 1/2"
  Experimental Value: "5.52 to 6.52"

IN: Provide measured pEC50 value, entry: `CC(C)(O)c1ccc(-c2cc3ccccc3c(=O)[nH]2)cc1`
OUT: > 6.52

IN: Provide measured pEC50 value, entry: `Cc1ccc(-c2cc3c(F)cccc3c(=O)[nH]2)cc1`
OUT: 5.52 to 6.52

IN: Provide measured pEC50 value, entry: `C=C(C)c1ccc(-c2cc3ccc(F)cc3c(=O)[nH]2)cc1`
OUT: > 6.52

IN: Provide measured pEC50 value, entry: `CC(C)(N)c1ccc(-c2cc3ccc(F)cc3c(=O)[nH]2)cc1`
OUT: 5.52 to 6.52

IN: Provide measured pEC50 value, entry: `Cc1ccc(-c2cc3cccc(F)c3c(=O)[nH]2)cc1`
OUT: 5.52 to 6.52

IN: Provide measured pEC50 value, entry: `COC(C)(C)c1ccc(-c2cc3ccccc3c(=O)[nH]2)cc1`
OUT: > 6.52

---

# Assayed Target: Tankyrase-2 (Homo sapiens)
# Sequence (Q9H2K2 873-1166): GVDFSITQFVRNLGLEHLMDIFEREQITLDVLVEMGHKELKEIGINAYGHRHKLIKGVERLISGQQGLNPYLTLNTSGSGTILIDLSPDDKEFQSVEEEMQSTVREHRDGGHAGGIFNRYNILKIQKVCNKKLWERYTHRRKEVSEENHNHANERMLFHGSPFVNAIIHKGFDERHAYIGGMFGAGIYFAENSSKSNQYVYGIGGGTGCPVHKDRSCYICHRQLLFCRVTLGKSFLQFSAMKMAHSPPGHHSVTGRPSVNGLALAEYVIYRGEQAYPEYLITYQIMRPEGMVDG
pIC50: −log10 of the molar value.
Measure Name: pIC50

In the examples that follow, each entry is paired with its recorded pIC50.
- Smiles Input: "O=c1[nH]c(-c2ccc(CO)cc2)cc2ccccc12"
  Assayed Target: "Tankyrase-2 (Homo sapiens)"
  Experimental Value: "5.52 to 6.52"
- Smiles Input: "CC(C)(C)c1ccc(-c2cc3cnccc3c(=O)[nH]2)cc1"
  Assayed Target: "Tankyrase-2 (Homo sapiens)"
  Experimental Value: "5.52 to 6.52"
- Smiles Input: "CC(C)(OCCO)c1ccc(-c2cc3ccc(F)cc3c(=O)[nH]2)cc1"
  Assayed Target: "Tankyrase-2 (Homo sapiens)"
  Experimental Value: "> 6.52"

IN: Provide measured pIC50 value, entry: `Cc1ccc(-c2cc3c(C)cccc3c(=O)[nH]2)cc1`
OUT: 5.52 to 6.52

---

# Test system: tankyrase 1/2
# Experiment Notes: Cellular inhibition of tankyrase: increase of Axin2 level in DLD1 cells (Luminex)
# Format: cell-based
# Condition Summary: DLD1 colon carcinoma cells, 24 hours, read-out: EC50 tankyrase 1/2 (cell assay)
Measure Name: EC50

In the examples that follow, each entry is paired with its recorded EC50.
- Compound: "CC1(c2ccc(-c3cc4ccc(F)cc4c(=O)[nH]3)cc2)CCCO1 (stereo not shown)"
  Experimental Value: "300 to 3000 nM"
- Compound: "CC(C)(C)c1ccc(-c2cc3cnccc3c(=O)[nH]2)cc1"
  Experimental Value: "< 300 nM"
- Compound: "O=c1[nH]c(-c2ccc(CO)cc2)cc2ccccc12"
  Experimental Value: "< 300 nM"

IN: Provide measured EC50 value, entry: `CC(C)(O)c1ccc(-c2cc3cnccc3c(=O)[nH]2)cc1`
OUT: 300 to 3000 nM
